- EXPERIMENTAL TARGET: NDM-1 (Klebsiella pneumoniae, UniProt C7C422)
- Sequence (C7C422 whole entry, looked up, species assumed): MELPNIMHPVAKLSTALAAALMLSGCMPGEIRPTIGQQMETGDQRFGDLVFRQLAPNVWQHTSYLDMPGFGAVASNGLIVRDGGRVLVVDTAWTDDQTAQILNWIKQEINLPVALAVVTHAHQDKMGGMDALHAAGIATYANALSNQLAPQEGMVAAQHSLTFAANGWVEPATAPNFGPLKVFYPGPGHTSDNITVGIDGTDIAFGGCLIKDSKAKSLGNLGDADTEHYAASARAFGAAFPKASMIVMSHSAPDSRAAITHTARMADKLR
- PROCEDURE TEXT: biochemical
- Format: biochemical
- RUN CONDITIONS: fluorescence assay with CCF2-FA substrate; read-out: NDM-1 IC50
Okay, here is how we bin by IC50: one (below 5 nM), two (5 nM to below 30 nM), three (30 nM or more)

COMPOUND: Cc1cccc(Cc2cccc(S(N)(=O)=O)c2-c2nnn[nH]2)c1
EXPERIMENTAL TARGET: NDM-1 (Klebsiella pneumoniae, UniProt C7C422)
ASSIGNED CATEGORY: two

COMPOUND: NS(=O)(=O)c1nccc(N2CCC(c3ncc[nH]3)CC2)c1-c1nnn[nH]1
EXPERIMENTAL TARGET: NDM-1 (Klebsiella pneumoniae, UniProt C7C422)
ASSIGNED CATEGORY: three

COMPOUND: COC(=O)N1CCC(c2ccc(-c3cccc(S(N)(=O)=O)c3-c3nnn[nH]3)cc2)CC1
EXPERIMENTAL TARGET: NDM-1 (Klebsiella pneumoniae, UniProt C7C422)
ASSIGNED CATEGORY: one

COMPOUND: NS(=O)(=O)c1cccc(-c2ccc(C(O)C(F)(F)F)cc2)c1-c1nn[nH]n1 (centres unmarked)
EXPERIMENTAL TARGET: NDM-1 (Klebsiella pneumoniae, UniProt C7C422)
ASSIGNED CATEGORY: one

COMPOUND: CNC(=O)c1ccc(-c2cccc(S(N)(=O)=O)c2-c2nn[nH]n2)cc1
EXPERIMENTAL TARGET: NDM-1 (Klebsiella pneumoniae, UniProt C7C422)
ASSIGNED CATEGORY: two

COMPOUND: C[C@H]1NC(=O)O[C@H]1c1ccc(-c2cccc(S(N)(=O)=O)c2-c2nnn[nH]2)cc1
EXPERIMENTAL TARGET: NDM-1 (Klebsiella pneumoniae, UniProt C7C422)
ASSIGNED CATEGORY: one

COMPOUND: NC1CCC2CN(c3ccc(C(F)(F)F)c(S(N)(=O)=O)c3-c3nnn[nH]3)CC2C1 (centres unmarked)
EXPERIMENTAL TARGET: NDM-1 (Klebsiella pneumoniae, UniProt C7C422)
ASSIGNED CATEGORY: three

COMPOUND: NS(=O)(=O)c1ccc(-c2cccc(S(N)(=O)=O)c2-c2nn[nH]n2)cc1
EXPERIMENTAL TARGET: NDM-1 (Klebsiella pneumoniae, UniProt C7C422)
ASSIGNED CATEGORY: two

COMPOUND: NS(=O)(=O)c1nccc(N2CCC(CN3CCOCC3)CC2)c1-c1nnn[nH]1
EXPERIMENTAL TARGET: NDM-1 (Klebsiella pneumoniae, UniProt C7C422)
ASSIGNED CATEGORY: three

COMPOUND: N=C(N)N1CCC2(CC1)CCN(c1ccc(C(F)(F)F)c(S(N)(=O)=O)c1-c1nnn[nH]1)CC2
EXPERIMENTAL TARGET: NDM-1 (Klebsiella pneumoniae, UniProt C7C422)
ASSIGNED CATEGORY: one

COMPOUND: NC1CCC(N2CCC(c3ccc(-c4ccc(C(F)(F)F)c(S(N)(=O)=O)c4-c4nnn[nH]4)cc3)CC2)C1 (centres unmarked)
EXPERIMENTAL TARGET: NDM-1 (Klebsiella pneumoniae, UniProt C7C422)
ASSIGNED CATEGORY: two

COMPOUND: NS(=O)(=O)c1cccc(C2=CCS(=O)(=O)CC2)c1-c1nnn[nH]1
EXPERIMENTAL TARGET: NDM-1 (Klebsiella pneumoniae, UniProt C7C422)
ASSIGNED CATEGORY: three

COMPOUND: NS(=O)(=O)c1nccc(-c2ccc3[nH]nc(C(F)(F)F)c3c2)c1-c1nn[nH]n1
EXPERIMENTAL TARGET: NDM-1 (Klebsiella pneumoniae, UniProt C7C422)
ASSIGNED CATEGORY: two

COMPOUND: COC(=O)c1ccc(-c2ccnc(S(N)(=O)=O)c2-c2nnn[nH]2)cc1
EXPERIMENTAL TARGET: NDM-1 (Klebsiella pneumoniae, UniProt C7C422)
ASSIGNED CATEGORY: three

COMPOUND: COc1ccc(-c2cccc(S(N)(=O)=O)c2-c2nn[nH]n2)cc1
EXPERIMENTAL TARGET: NDM-1 (Klebsiella pneumoniae, UniProt C7C422)
ASSIGNED CATEGORY: one
